We begin with a simple list: items and their reported Post-emerge Herbicidal Activity AMARE.
System: redroot pigweed (Amaranthus retroflexus, AMARE)
Assay: Post-emerge test, greenhouse herbicide activity screening
Assay type: in vivo
Details: post-emerge, 250 g ai/ha, phytotoxicity rating 0-100 at 14 days after application

The following compounds have reported results that may help.
Cc1cc(C)c(COC(=O)Nc2c(C)c(Cl)cc(F)c2-n2c(=O)cc(C(F)(F)F)n(C)c2=O)c(C)c1 ... 100
Cc1c(Cl)cc(F)c(-n2c(=O)cc(C(F)(F)F)n(C)c2=O)c1NC(=O)OCc1ccc([N+](=O)[O-])cc1 ... 100
O=C(Nc1cc(Cl)ccc1N1C(=O)C2=C(CCCC2)C1=O)c1ccc2ccccc2c1 ... 90
COc1ccccc1COC(=O)Nc1c(C)c(Cl)cc(F)c1-n1c(=O)cc(C(F)(F)F)n(C)c1=O ... 100
O=C(Nc1cc(Cl)ccc1-n1c(=O)n2n(c1=O)CCCC2)c1ccc2ccccc2c1 ... 98
CCC(=O)Nc1c(Cl)cc(Cl)c(-n2nc(C)n(C(F)F)c2=O)c1N ... 30

Query :: // query Post-emerge Herbicidal Activity AMARE value for entry `Cc1ccc(COC(=O)Nc2c(C)c(Cl)cc(F)c2-n2c(=O)cc(C(F)(F)F)n(C)c2=O)cc1`
Result :: 100

Query :: // query Post-emerge Herbicidal Activity AMARE value for entry `COc1c(Cl)cc(F)c(N2C(=O)C3=C(CCCC3)C2=O)c1N`
Result :: 100

Query :: // query Post-emerge Herbicidal Activity AMARE value for entry `C=Cc1ccc(C(=O)Nc2c(OC)c(Cl)cc(F)c2N2C(=O)C3=C(CCCC3)C2=O)cc1`
Result :: 100

Query :: // query Post-emerge Herbicidal Activity AMARE value for entry `CC(C)Oc1c(Cl)cc(F)c(N2C(=O)C3=C(CCCC3)C2=O)c1NC(=O)c1ccc(F)cc1F`
Result :: 100

====

Test system: ivyleaf morningglory (Ipomoea hederacea, IPOHE)
Experiment: Post-emerge test, greenhouse herbicide activity screening
Assay type: in vivo
Conditions: 250 g ai/ha; post-emerge; 14 days after application; rating scale 0-100
Quantity Measured: Post-emerge Herbicidal Activity IPOHE (phytotoxicity rating)
Give your answer as a number; write no unit.

The following molecules have reported results that may help.
COc1c(Cl)cc(F)c(-n2c(=O)cc(C(F)(F)F)n(C)c2=O)c1NN=Cc1ccc2ccccc2c1 [15-22] ... 100
CCOC(=O)C(Cl)Cc1cc(Cl)cc(F)c1-n1c(=O)cc(C(F)(F)F)n(C)c1=O (stereo not shown) [14-60] ... 100
COc1c(Cl)cc(F)c(-n2c(=O)cc(C(F)(F)F)n(C)c2=O)c1SC(C)C [17-2] ... 20

Query :: // query Post-emerge Herbicidal Activity IPOHE (phytotoxicity rating) value for entry CCOC(=O)N(C)C(=O)NNc1c(OC)c(Cl)cc(F)c1-n1c(=O)cc(C(F)(F)F)n(C)c1=O [15-9]
Result :: 85

====

System: upland rice (Oryza sp., var. Tebonnet, RICE)
Assay: Pre-emerge test, crop safety
Assay type: in vivo
Conditions: 250 g ai/ha; crop damage rating 0-100, 14 days after application
We begin with a simple list: items and their reported Pre-emerge Herbicidal Activity RICE.
Give your answer as a number; write no unit.

COc1c(Cl)cc(F)c(-n2c(=O)cc(C(F)(F)F)n(C)c2=O)c1NC(=O)OCc1ccc(F)c(F)c1 ... 90
COc1c(Cl)cc(F)c(-n2c(=O)cc(C(F)(F)F)n(C)c2=O)c1NC(=O)OCc1cc(C)ccc1C ... 60
COc1c(Cl)cc(F)c(-n2c(=O)cc(C(F)(F)F)n(C)c2=O)c1NC(=O)C1CC1 ... 80
Cc1c(Cl)cc(F)c(-n2c(=O)cc(C(F)(F)F)n(C)c2=O)c1NC(=O)OCc1ccccc1Cl ... 60
Cn1c(C(F)(F)F)cc(=O)n(-c2ccc(C(N)=S)cc2NC(=O)c2ccc3ccccc3c2)c1=O ... 70
COc1c(Cl)cc(F)c(-n2c(=O)cc(C(F)(F)F)n(C)c2=O)c1NC(=O)OCc1ccccn1 ... 95
COc1c(Cl)cc(F)c(-n2c(=O)cc(C(F)(F)F)n(C)c2=O)c1NC(=O)OCc1ccccc1[N+](=O)[O-] ... 95

Shift focus to the following entry.
Query :: // query Pre-emerge Herbicidal Activity RICE value for entry `COC(=O)Nc1c(OC)c(Cl)cc(F)c1-n1c(=O)cc(C(F)(F)F)n(C)c1=O`
Result :: 95

Data origin: patent US6355799B1
